- system under test: T1, activated Protein C (APC) (human, UniProt P04070 43-197; P04070 212-461)
- T1 construct: also called human plasma APC
- T1 sequence (P04070 43-197, chain 1 of 2): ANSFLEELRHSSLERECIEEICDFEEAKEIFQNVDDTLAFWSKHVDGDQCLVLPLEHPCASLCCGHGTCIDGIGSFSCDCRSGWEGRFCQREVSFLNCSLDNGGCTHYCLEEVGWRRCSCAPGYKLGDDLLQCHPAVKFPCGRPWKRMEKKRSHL
- T1 sequence (P04070 212-461, chain 2 of 2): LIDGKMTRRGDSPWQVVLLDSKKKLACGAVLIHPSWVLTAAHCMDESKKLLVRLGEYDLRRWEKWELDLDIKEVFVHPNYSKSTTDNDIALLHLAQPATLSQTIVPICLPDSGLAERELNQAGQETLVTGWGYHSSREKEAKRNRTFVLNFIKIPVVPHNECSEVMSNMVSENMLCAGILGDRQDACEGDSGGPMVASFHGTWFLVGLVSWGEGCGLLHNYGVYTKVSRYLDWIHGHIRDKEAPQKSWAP
- method summary: pseudo-first-order inhibition kinetics, residual chromogenic activity
assay endpoint: second-order rate constant of inhibition (M⁻¹ s⁻¹)
Numbers only, in M⁻¹ s⁻¹.

Give its second-order rate constant of inhibition value. Item: FL α1AT Pitts C232S P2R (other, E. coli, purified; also called P2.F10; P2.G8) SDPQGDAAQKTDTSHHDQDHPTFNKITPNLAEFAFSLYRQLAHQSNSTNIFFSPVSIATAFAMLSLGTKADTHDEILEGLNFNLTEIPEAQIHEGFQELLRTLNQPDSQLQLTTGNGLFLSEGLKLVDKFLEDVKKLYHSEAFTVNFGDTEEAKKQINDYVEKGTQGKIVDLVKELDRDTVFALVNYIFFKGKWERPFEVKDTEEEDFHVDQVTTVKVPMMKRLGMFNIQHSKKLSSWVLLMKYLGNATAIFFLPDEGKLQHLENELTHDIITKFLENEDRRSASLHLPKLSITGTYDLKSVLGQLGITKVFSNGADLSGVTEEAPLKLSKAVHKAVLTIDEKGTEAAGAMFLEAIRRSIPPEVKFNKPFVFLMIEQNTKSPLFMGKVVNPTQK
61100
